Could you please report measured pIC50 for the items listed next?
# SYSTEM UNDER TEST: Histone deacetylase 1 (Homo sapiens, UniProt Q13547)
# Sequence (Q13547 whole entry): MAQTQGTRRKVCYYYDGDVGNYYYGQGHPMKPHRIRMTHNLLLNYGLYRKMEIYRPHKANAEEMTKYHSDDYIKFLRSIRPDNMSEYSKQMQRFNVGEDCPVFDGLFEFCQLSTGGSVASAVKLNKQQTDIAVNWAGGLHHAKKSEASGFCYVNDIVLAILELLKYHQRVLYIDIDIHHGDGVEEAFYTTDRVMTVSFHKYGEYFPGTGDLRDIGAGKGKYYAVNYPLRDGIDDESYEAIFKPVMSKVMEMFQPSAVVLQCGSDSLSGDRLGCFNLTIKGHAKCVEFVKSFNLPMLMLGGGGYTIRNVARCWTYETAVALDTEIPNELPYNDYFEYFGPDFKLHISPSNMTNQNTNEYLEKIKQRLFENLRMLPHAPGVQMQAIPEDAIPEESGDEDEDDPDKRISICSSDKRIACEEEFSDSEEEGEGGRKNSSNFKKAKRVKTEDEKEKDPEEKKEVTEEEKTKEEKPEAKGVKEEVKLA
# TEST DESCRIPTION: Inhibition of recombinant human C-terminal His/FLAG-tagged HDAC1 (1 to end residues) expressed in sf9 insect cells using Boc-Lys(Ac)-AMC as substrate incubated for 60 mins by fluorescence assay
One number for each entry, as −log10 of the molar value.

Please review the entries below; each comes with its answer.
[
  {
    "TEST SMILES": "O=C(CCCCCCC(=O)Nc1n[nH]c2cc(-c3ccccc3)ccc12)NO",
    "SYSTEM UNDER TEST": "Histone deacetylase 1 (Homo sapiens, UniProt Q13547)",
    "pIC50": 8.02
  },
  {
    "TEST SMILES": "COc1cccc(-c2ccc3c(NC(=O)CCCCCCC(=O)NO)n[nH]c3n2)c1",
    "SYSTEM UNDER TEST": "Histone deacetylase 1 (Homo sapiens, UniProt Q13547)",
    "pIC50": 8.62
  },
  {
    "TEST SMILES": "COc1cccc(-c2ccc3c(NC(=O)CCCCCCC(=O)NO)n[nH]c3c2)c1",
    "SYSTEM UNDER TEST": "Histone deacetylase 1 (Homo sapiens, UniProt Q13547)",
    "pIC50": 8.72
  },
  {
    "TEST SMILES": "COc1ccc(-c2ccc3c(NC(=O)CCCCCCC(=O)NO)n[nH]c3c2)cc1OC",
    "SYSTEM UNDER TEST": "Histone deacetylase 1 (Homo sapiens, UniProt Q13547)",
    "pIC50": 8.47
  },
  {
    "TEST SMILES": "O=C(CCCCCCC(=O)Nc1n[nH]c2cc(-c3ccccc3F)ccc12)NO",
    "SYSTEM UNDER TEST": "Histone deacetylase 1 (Homo sapiens, UniProt Q13547)",
    "pIC50": 8.74
  },
  {
    "TEST SMILES": "COc1ccccc1-c1ccc2c(NC(=O)CCCCCCC(=O)NO)n[nH]c2c1",
    "SYSTEM UNDER TEST": "Histone deacetylase 1 (Homo sapiens, UniProt Q13547)",
    "pIC50": 8.34
  }
]

The measured pIC50 that O=C(CCCCCCC(=O)Nc1n[nH]c2cc(-c3ccncc3)ccc12)NO showed for Histone deacetylase 1 (Homo sapiens, UniProt Q13547) is 7.64

----------
# SYSTEM UNDER TEST: Histone deacetylase 1 (Homo sapiens, UniProt Q13547)
# TEST DESCRIPTION: Inhibition of recombinant human C-terminal His/FLAG-tagged HDAC1 (1 to end residues) expressed in sf9 insect cells using Boc-Lys(Ac)-AMC as substrate incubated for 60 mins by fluorescence assay
Kindly supply the reported log10 of IC50 values for the records listed here.
Scale: decimal log of IC50, IC50 in nM.

[
  {
    "MOLECULE": "COc1cccc(-c2ccc3c(NC(=O)CCCC(=O)NO)n[nH]c3c2)c1",
    "METRIC": "log10 of IC50",
    "OBSERVED RESULT": 1.88
  },
  {
    "MOLECULE": "COc1cccc(-c2ccc3c(NC(=O)CCCCCC(=O)NO)n[nH]c3c2)c1",
    "METRIC": "log10 of IC50",
    "OBSERVED RESULT": 0.41
  },
  {
    "MOLECULE": "COc1cccc(-c2ccc3c(NC(=O)C4CCC(C(=O)NO)CC4)n[nH]c3c2)c1 (stereo not given)",
    "METRIC": "log10 of IC50",
    "OBSERVED RESULT": 3.38
  },
  {
    "MOLECULE": "O=C(CCCCCCC(=O)Nc1n[nH]c2cc(-c3ccc(Cl)cc3)ccc12)NO",
    "METRIC": "log10 of IC50",
    "OBSERVED RESULT": 0.49
  }
]

Kindly note the recorded log10 of IC50 for CCOc1cccc(-c2ccc3c(NC(=O)CCCCCCC(=O)NO)n[nH]c3c2)c1 , which is 0.32

----------
# Tested on: HeLa
# TEST DESCRIPTION: cells
# Assay type: functional, cell-based
# COND: Homo sapiens, 72 h
# Description: Antiproliferative activity against human HeLa cells assessed as reduction in cell viability after 72 hrs by MTT assay
METRIC: IC50 (µM)
Give bare numbers, in µM.

Below, each entry is followed by its recorded IC50 result.
[
  {
    "TEST SMILES": "COc1ccc(-c2ccc3c(NC(=O)CCCCCCC(=O)NO)n[nH]c3c2)cc1",
    "SYSTEM UNDER TEST": "HeLa",
    "IC50 (µM)": 4.4
  },
  {
    "TEST SMILES": "CCOc1cccc(-c2ccc3c(NC(=O)CCCCCCC(=O)NO)n[nH]c3c2)c1",
    "SYSTEM UNDER TEST": "HeLa",
    "IC50 (µM)": 10.8
  },
  {
    "TEST SMILES": "O=C(CCCCCCC(=O)Nc1n[nH]c2cc(-c3ccsc3)ccc12)NO",
    "SYSTEM UNDER TEST": "HeLa",
    "IC50 (µM)": 29.5
  },
  {
    "TEST SMILES": "COc1cccc(-c2ccc3c(NC(=O)CCCCC(=O)NO)n[nH]c3c2)c1",
    "SYSTEM UNDER TEST": "HeLa",
    "IC50 (µM)": 5.8
  },
  {
    "TEST SMILES": "COc1cccc(-c2ccc3c(NC(=O)CCCCCCC(=O)NO)n[nH]c3c2)c1F",
    "SYSTEM UNDER TEST": "HeLa",
    "IC50 (µM)": 9.8
  }
]

Provide IC50 values for the following items, in order.
1. COc1ccc(-c2ccc3c(NC(=O)CCCCCCC(=O)NO)n[nH]c3c2)cc1OC
2. COc1cccc(-c2ccc3c(NC(=O)CCCCCCC(=O)NO)n[nH]c3c2)c1
3. O=C(CCCCCCC(=O)Nc1n[nH]c2cc(-c3cccc(C(F)(F)F)c3)ccc12)NO
4. COc1cccc(-c2ccc3c(NC(=O)CCCCCC(=O)NO)n[nH]c3c2)c1
5. O=C(CCCCCCC(=O)Nc1n[nH]c2cc(-c3cccc(Cl)c3)ccc12)NO

1: 21.3; 2: 3; 3: 6; 4: 20.1; 5: 0.2

----------
# Test system: HeLa
# TEST DESCRIPTION: cells
# Type: functional, cell-based
# COND: Homo sapiens, 72 h
Would you mind telling me the reported pIC50 of each entry?
One number for each entry, as −log10 of the molar value.

Reference set, count: 3
[
  {
    "TEST SMILES": "O=C(CCCCCCC(=O)Nc1n[nH]c2cc(-c3ccccc3)ccc12)NO",
    "SYSTEM UNDER TEST": "HeLa",
    "pIC50": 4.90
  },
  {
    "TEST SMILES": "COc1cccc(-c2ccc3c(NC(=O)CCCCCCC(=O)NO)n[nH]c3n2)c1",
    "SYSTEM UNDER TEST": "HeLa",
    "pIC50": 5.44
  },
  {
    "TEST SMILES": "O=C(CCCCCCC(=O)Nc1n[nH]c2cc(-c3ccc(Cl)cc3)ccc12)NO",
    "SYSTEM UNDER TEST": "HeLa",
    "pIC50": 5.32
  }
]

// for each compound below, give its pIC50
1. COc1ccccc1-c1ccc2c(NC(=O)CCCCCCC(=O)NO)n[nH]c2c1
2. COc1ccc(-c2ccc3c(NC(=O)CCCCCCC(=O)NO)n[nH]c3n2)cc1
3. O=C(CCCCCCC(=O)Nc1n[nH]c2cc(-c3ccccc3Cl)ccc12)NO

[5.23, 5.32, 5.09]

----------
# Test system: HCT-116
# TEST DESCRIPTION: Antiproliferative activity against human HCT-116 cells assessed as reduction in cell viability after 72 hrs by MTT assay
# Type: functional, cell-based
# COND: HCT-116, 72 h
METRIC: IC50 (µM)
Give bare numbers, in µM.

Answered examples (6):
[
  {
    "COMPOUND": "CCOc1cccc(-c2ccc3c(NC(=O)CCCCCCC(=O)NO)n[nH]c3c2)c1",
    "IC50 [µM]": 4.2
  },
  {
    "COMPOUND": "COc1ccc(F)c(-c2ccc3c(NC(=O)CCCCCCC(=O)NO)n[nH]c3c2)c1",
    "IC50 [µM]": 7.5
  },
  {
    "COMPOUND": "O=C(CCCCCCC(=O)Nc1n[nH]c2cc(-c3cccc(C(F)(F)F)c3)ccc12)NO",
    "IC50 [µM]": 2.9
  },
  {
    "COMPOUND": "COc1cccc(-c2ccc3c(NC(=O)CCCCCC(=O)NO)n[nH]c3c2)c1",
    "IC50 [µM]": 10.6
  },
  {
    "COMPOUND": "COc1ccc(-c2ccc3c(NC(=O)CCCCCCC(=O)NO)n[nH]c3n2)cc1",
    "IC50 [µM]": 4.1
  },
  {
    "COMPOUND": "O=C(CCCCCCC(=O)Nc1n[nH]c2cc(-c3ccsc3)ccc12)NO",
    "IC50 [µM]": 7.5
  }
]

Go through the items and report each one's IC50.
1. COc1ccccc1-c1ccc2c(NC(=O)CCCCCCC(=O)NO)n[nH]c2c1
2. O=C(CCCCCCC(=O)Nc1n[nH]c2cc(-c3ccccc3)ccc12)NO
3. COc1cccc(-c2ccc3c(NC(=O)CCCCCCC(=O)NO)n[nH]c3c2)c1F
4. O=C(CCCCCCC(=O)Nc1ccccc1)NO [VORINOSTAT]

2.7
10.2
7.6
4.9

Please state IC50 for every compound in the list that follows.
1. COc1cccc(-c2ccc3c(NC(=O)CCCCCCC(=O)NO)n[nH]c3n2)c1
2. O=C(CCCCCCC(=O)Nc1n[nH]c2cc(-c3cccc(Cl)c3)ccc12)NO
3. O=C(CCCCCCC(=O)Nc1n[nH]c2cc(-c3ccccc3F)ccc12)NO
4. COc1ccc(-c2ccc3c(NC(=O)CCCCCCC(=O)NO)n[nH]c3c2)cc1

1: 2.7; 2: 41.8; 3: 4.1; 4: 2.1

// input: 4 compounds below; output: IC50 for each
1. COc1cccc(-c2ccc3c(NC(=O)CCCCCCC(=O)NO)n[nH]c3c2)c1
2. COc1cc(OC)cc(-c2ccc3c(NC(=O)CCCCCCC(=O)NO)n[nH]c3c2)c1
3. COc1cccc(-c2ccc3c(NC(=O)C4CCC(C(=O)NO)CC4)n[nH]c3c2)c1 (stereo not drawn)
4. O=C(CCCCCCC(=O)Nc1n[nH]c2cc(-c3ccc(Cl)cc3)ccc12)NO

1: 8.1; 2: 9.5; 3: 47.4; 4: 3.9

List reported IC50 for each of these compounds:
1. COc1cccc(-c2ccc3c(NC(=O)CCCCC(=O)NO)n[nH]c3c2)c1
2. O=C(CCCCCCC(=O)Nc1n[nH]c2cc(-c3ccccc3Cl)ccc12)NO
3. O=C(CCCCCCC(=O)Nc1n[nH]c2cc(-c3ccncc3)ccc12)NO
4. COc1ccc(-c2ccc3c(NC(=O)CCCCCCC(=O)NO)n[nH]c3c2)cc1OC

23.5
2.6
12.3
14.6
